Cited source: patent US20260008852A1

Target: T1, His-tagged human B7-H3 (human, UniProt Q5ZPR3-2 29-245, limits assumed)
T1 construct: Bought His-tagged protein coated on the ELISA plate; also called hu B7-H3; CD276
T1 sequence (looked up): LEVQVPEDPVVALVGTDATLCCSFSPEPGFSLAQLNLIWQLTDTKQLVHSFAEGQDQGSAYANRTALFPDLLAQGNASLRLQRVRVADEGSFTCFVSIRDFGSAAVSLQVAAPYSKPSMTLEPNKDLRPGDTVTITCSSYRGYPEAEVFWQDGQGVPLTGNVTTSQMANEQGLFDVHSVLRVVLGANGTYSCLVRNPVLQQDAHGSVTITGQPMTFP
Assay: ELISA, coated His-tagged antigen, scFv-Fc 1 ug/ml
QUANTITY: ELISA OD450 @ 1 ug/ml (OD450)
Give the number; OD450 is assumed, so skip it.

Record summary for 40633p1.2.C3 (scFv, V domains shown, Tested as scFv-Fc (Expi293 supernatant)) VH: EVQLLESGGGLVQPGGSLRLSCAASGFTVSYYGMSWVRQAPGKGLEWVSAIKQDGSEKYYADSVKGRFTISRDNSKNTLYLQMNSLRAEDTAVYYCARHWNDYSNAMNVWEQGTTVTVSS VL: QSVLTQPPSASGTPGQRVTISCSGSNSNVGGNYVSWYQQLPGTAPKLLIYRNSQRPSGVPDRFSGSKSGTSASLAISGLQSEDEAVYYCASWDASLNGWVFGGGTKLTVL : reported ELISA OD450 @ 1 ug/ml = 1.78

Sure, the documented ELISA OD450 @ 1 ug/ml for 40579p1.C2 (scFv, V domains shown, Tested as scFv-Fc (Expi293 supernatant)) VH: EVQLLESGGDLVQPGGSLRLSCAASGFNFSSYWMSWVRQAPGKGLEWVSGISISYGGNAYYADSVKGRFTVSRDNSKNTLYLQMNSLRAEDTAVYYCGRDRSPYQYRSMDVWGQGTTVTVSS VL: EIVLTQSPATLSVSPGERATFSCRASQTIGNKLAWYQQKPGQAPRLLIFSASTRATDIPDRFSGSGSGTDFTLTISSLQSEDFAVYYCQQYNNWPPLTFGGGTKVEIK is 2.12

Per the records, this binder ( 40633p1.1.B3 (scFv, V domains shown, Tested as scFv-Fc (Expi293 supernatant)) VH: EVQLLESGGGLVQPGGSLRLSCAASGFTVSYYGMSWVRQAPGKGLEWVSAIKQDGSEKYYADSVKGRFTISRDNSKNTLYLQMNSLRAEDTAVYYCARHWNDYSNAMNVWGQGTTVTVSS VL: QSVLTQPPSASGTPGQRVTISCSGSTSNIGRESVYWYQQLPGTAPKLLIYTIDQRPSGVPDRFSGSKSGTSASLAISGLQSEDEADYYCGTWDDSLNAWVFGGGTKLTVL ) has ELISA OD450 @ 1 ug/ml equal to 2.04
